Tested on: Mus musculus
Assay procedure: Acquisition time in (R)-PIA) induced avoidance test (performed in mice) for antagonistic activity after peroral administration of 5 mg/kg
Assay type: functional
Details: route oral
Recorded endpoint: Acquisition time (s)
# value in s; strip the unit string

I am curious: what Acquisition time value has been reported for "Cn1c(=O)c2nc[nH]c2n(C)c1=O.O" ?
20.3

Name the recorded Acquisition time for CCCn1c(=O)c2nc(C3CCC(=O)C3)[nH]c2n(CCc2ccc(N)cc2)c1=O (stereo not given) .
12.9

Which measured Acquisition time value corresponds to "CCCn1c(=O)c2c(nc(/C=C/c3ccc(OC)c(OC)c3)n2C)n(CCC)c1=O" ?
19.8

Which Acquisition time reading was recorded for the molecule "CCCN1C(=O)N2C[C@H](CC)N=C2c2[nH]c(C34CC5CC(CC3C5)C4)nc21" ?
12.9

What measured Acquisition time goes with CCCN1C(=O)N2CC(CC)N=C2c2[nH]c(C34CC5CC(CC3C5)C4)nc21 (racemic) ?
24.9

Look at this molecule and give its reported Acquisition time. "CCCn1c(=O)c2nc(C34CC5CC(CC3C5)C4)[nH]c2n(CCc2ccc(N)cc2)c1=O"
14.7

Any idea what its Acquisition time is? The molecule is "CCCn1c(=O)c2nc(C3CCCC3)[nH]c2n(CCc2ccc(NC(=O)C(C)C)cc2)c1=O"
34.4

I would be grateful if you could share the reported Acquisition time for "CCCn1c(=O)c2[nH]c(C3CCCC3)nc2n(CCC)c1=O" .
18.4

Bench note: what Acquisition time did "CCCn1c(=O)c2nc(C(C3CC3)C3CC3)[nH]c2n(CCC)c1=S" show?
33.6

Which Acquisition time is reported for this molecule? "CCCn1c(=O)c2nc(C3CCCC3)[nH]c2n(CCc2ccc(NC(C)=O)cc2)c1=O"
27.8
